Listed below: IC50 values for each entry.
- Test Target: HLA-A*02:01
- Experiment: IEDB peptide-MHC binding, purified MHC/competitive/fluorescence; bounds were set here for any values at or beyond the usual limits of such assays
- Condition Info: source organism: Homo sapiens

- Sequence Text: "FPHTELANL"
  IC50: "≥ 20000 nM"

So for `VLVHPQWVL` , the logged IC50 turned out to be 2080 nM

----------
- Test Target: HLA-A*68:02
- Experiment: IEDB peptide-MHC binding, purified MHC/competitive/fluorescence; bounds were set here for any values at or beyond the usual limits of such assays
- Condition Info: source organism: Homo sapiens
Assay Readout: IC50 (nM)
Provide only the numeric value, understood in nM.

Tested on HLA-A*68:02, the item `FPHTELANL` showed IC50 equal to 224

----------
- Test Target: HLA-A*02:03
- Experiment: IEDB peptide-MHC binding, purified MHC/competitive/radioactivity; filed as Kd, often an IC50 or EC50 that approximates it; bounds were set here for any values at or beyond the usual limits of such assays
- Condition Info: source organism: Dengue virus 1 Brazil/97-11/1997
Assay Readout: Kd (nM)
Provide only the numeric value, understood in nM.

Sample answers from the record:
- Sequence Text: "LLKATLLAV"
  Assay Readout: "Kd"
  Data Value: 0.03
- Sequence Text: "LLLTIGLSLV"
  Assay Readout: "Kd"
  Data Value: 14.6

// next item, Kd requested
So for `SLSMTCIAV` , the logged Kd turned out to be 124

----------
- Test Target: HLA-A*02:16
- Experiment: IEDB peptide-MHC binding, purified MHC/direct/fluorescence; filed as Kd, often an IC50 or EC50 that approximates it; bounds were set here for any values at or beyond the usual limits of such assays
- Condition Info: source organism: Encephalitozoon cuniculi GB-M1
Assay Readout: Kd

Tested on HLA-A*02:16, the item `RNMSRIFPY` showed Kd equal to ≥ 20 µM

----------
- Test Target: HLA-A*03:01
- Experiment: IEDB peptide-MHC binding, purified MHC/competitive/fluorescence; filed as Kd, often an IC50 or EC50 that approximates it; bounds were set here for any values at or beyond the usual limits of such assays
- Condition Info: source organism: Entamoeba dispar SAW760
Assay Readout: Kd

So for `KDGTLFYCY` , the logged Kd turned out to be ≥ 20 µM

----------
- Test Target: HLA-B*27:03
- Experiment: IEDB peptide-MHC binding, purified MHC/competitive/fluorescence; filed as Kd, often an IC50 or EC50 that approximates it; bounds were set here for any values at or beyond the usual limits of such assays
- Condition Info: source organism: Canarypox virus
Assay Readout: Kd

So for `GTIIVHPNK` , the logged Kd turned out to be ≥ 20 µM

----------
- Test Target: HLA-A*31:01
- Experiment: IEDB peptide-MHC binding, purified MHC/direct/fluorescence; filed as Kd, often an IC50 or EC50 that approximates it; bounds were set here for any values at or beyond the usual limits of such assays
- Condition Info: source organism: Escherichia coli
Assay Readout: Kd

So for `SSMNSDAAY` , the logged Kd turned out to be ≥ 20 µM

----------
- Test Target: HLA-B*51:01
- Experiment: IEDB peptide-MHC binding, purified MHC/direct/fluorescence; filed as Kd, often an IC50 or EC50 that approximates it; bounds were set here for any values at or beyond the usual limits of such assays
- Condition Info: source organism: Vibrio vulnificus YJ016
Assay Readout: Kd (nM)
Provide only the numeric value, understood in nM.

So for `FPLWNTEKI` , the logged Kd turned out to be 71

----------
- Test Target: HLA-A*02:01
- Experiment: IEDB peptide-MHC binding, purified MHC/competitive/fluorescence; bounds were set here for any values at or beyond the usual limits of such assays
- Condition Info: source organism: Human alphaherpesvirus 1 strain 17
Assay Readout: IC50 (nM)
Provide only the numeric value, understood in nM.

- Sequence Text: "LLPPELSET"
  Unit Info: "nM"
  Data Value: 4890

// next item, IC50 requested
So for `VLLNAPSEA` , the logged IC50 turned out to be 19

----------
Listed below: Kd values for each entry.
- Test Target: HLA-B*27:03
- Experiment: IEDB peptide-MHC binding, purified MHC/competitive/fluorescence; filed as Kd, often an IC50 or EC50 that approximates it; bounds were set here for any values at or beyond the usual limits of such assays
- Condition Info: source organism: Orthohantavirus andesense

- Sequence Text: "IQNALEKAL"
  Assay Readout: "Kd"
  Data Value: "≥ 20 µM"

// next item, Kd requested
Tested on HLA-B*27:03, the item `VFTSRIQVI` showed Kd equal to ≥ 20 µM

----------
- Test Target: HLA-A*01:01
- Experiment: IEDB peptide-MHC binding, purified MHC/direct/fluorescence; filed as Kd, often an IC50 or EC50 that approximates it; bounds were set here for any values at or beyond the usual limits of such assays
- Condition Info: source organism: Coxiella burnetii
Assay Readout: Kd

- Sequence Text: "YYYNFSEDL"
  Test Target: "HLA-A*01:01"
  Data Value: "≥ 20 µM"

// next item, Kd requested
So for `WAPEGDIRL` , the logged Kd turned out to be ≥ 20 µM

----------
- Test Target: HLA-B*57:01
- Experiment: IEDB peptide-MHC binding, purified MHC/competitive/fluorescence; filed as Kd, often an IC50 or EC50 that approximates it; bounds were set here for any values at or beyond the usual limits of such assays
- Condition Info: source organism: Kurkino virus
Assay Readout: Kd

Tested on HLA-B*57:01, the item `SPGDNSAKF` showed Kd equal to ≥ 20 µM

----------
- Test Target: HLA-B*57:01
- Experiment: IEDB peptide-MHC binding, purified MHC/direct/fluorescence; filed as Kd, often an IC50 or EC50 that approximates it; bounds were set here for any values at or beyond the usual limits of such assays
- Condition Info: source organism: Vibrio parahaemolyticus
Assay Readout: Kd (nM)
Provide only the numeric value, understood in nM.

So for `TVIPFYFVW` , the logged Kd turned out to be 275

----------
- Test Target: HLA-A*26:02
- Experiment: IEDB peptide-MHC binding, purified MHC/competitive/fluorescence; filed as Kd, often an IC50 or EC50 that approximates it; bounds were set here for any values at or beyond the usual limits of such assays
- Condition Info: source organism: Influenza A virus (A/duck/Hong Kong/3096/99(H6N2))
Assay Readout: Kd

So for `TMLYNKMEF` , the logged Kd turned out to be ≥ 20 µM

----------
- Test Target: HLA-C*12:03
- Experiment: IEDB peptide-MHC binding, purified MHC/direct/fluorescence; filed as Kd, often an IC50 or EC50 that approximates it; bounds were set here for any values at or beyond the usual limits of such assays
- Condition Info: source organism: Vibrio cholerae 2740-80
Assay Readout: Kd (nM)
Provide only the numeric value, understood in nM.

Tested on HLA-C*12:03, the item `MMFDAMGAL` showed Kd equal to 46

----------
- Test Target: HLA-B*39:01
- Experiment: IEDB peptide-MHC binding, purified MHC/competitive/fluorescence; filed as Kd, often an IC50 or EC50 that approximates it; bounds were set here for any values at or beyond the usual limits of such assays
- Condition Info: source organism: Vibrio vulnificus YJ016
Assay Readout: Kd
A complete answer gives the number and then names the unit.

So for `EPADHLAIM` , the logged Kd turned out to be 1210 nM

----------
Listed below: pKd values for each entry.
- Test Target: HLA-A*29:02
- Experiment: IEDB peptide-MHC binding, purified MHC/competitive/radioactivity; filed as Kd, often an IC50 or EC50 that approximates it; bounds were set here for any values at or beyond the usual limits of such assays
- Condition Info: source organism: Mammarenavirus guanaritoense
API: returns pKd as number; meaning -log10 of concentration in mol/L.

So for `ILNFVAHVY` , the logged pKd turned out to be 8.91

So for `SVSGTFVAEF` , the logged pKd turned out to be 5.04

----------
- Test Target: HLA-A*69:01
- Experiment: IEDB peptide-MHC binding, purified MHC/direct/fluorescence; filed as Kd, often an IC50 or EC50 that approximates it; bounds were set here for any values at or beyond the usual limits of such assays
- Condition Info: source organism: Treponema pallidum
Assay Readout: Kd (µM)
Provide only the numeric value, understood in µM.

So for `IVDYVTAYG` , the logged Kd turned out to be 1.63

----------
- Test Target: HLA-B*40:01
- Experiment: IEDB peptide-MHC binding, purified MHC/direct/fluorescence; filed as Kd, often an IC50 or EC50 that approximates it; bounds were set here for any values at or beyond the usual limits of such assays
- Condition Info: source organism: Brucella suis
Assay Readout: pKd
API: returns pKd as number; meaning -log10 of concentration in mol/L.

So for `AENGWGFYF` , the logged pKd turned out to be 7.54

----------
- Test Target: HLA-B*51:01
- Experiment: IEDB peptide-MHC binding, purified MHC/competitive/fluorescence; filed as Kd, often an IC50 or EC50 that approximates it; bounds were set here for any values at or beyond the usual limits of such assays
- Condition Info: source organism: Homo sapiens
Assay Readout: Kd

Tested on HLA-B*51:01, the item `SVDSDHLGY` showed Kd equal to ≥ 20 µM
